Catalogue of molecules with associated INHIBITION
# Tested on: Plasmodium berghei
# assay-name: Screen against P. berghei liver stage (PbLuc), transformed with Luciferase, at 10uM
# Format: functional, HepG2
# experimental-setup: tested at 10 uM
Among all 69,000 compounds or so, about 8,600 (12%) showed an effect of 50% or more. The entries come from a sample that favours strong results as a whole.
Your answer is read as %, so omit the unit and give the number.

As a guide, the following entries are already answered.
Cc1nc(Nc2ncccn2)cc(C2CCCN2Cc2ncc[nH]2)n1 (centres undefined)	18.9
Cc1cc(C(=O)N2CCC(CCn3cccn3)CC2)c(C)o1	39.5
COc1ccc(-c2cc(C3CC3)c(C#N)c(N)n2)cc1F	-60.9

Prompt line: Which INHIBITION is reported for this molecule? CC1(c2ccccc2)CCCN(Cc2nnc(-c3cccnc3)o2)C1 (centres undefined)
Response line: 5.91

Prompt line: Can you look up the measured INHIBITION of CC(C)CN1CCCC1c1cc[nH]n1 (centres undefined) for me?
Response line: 52.7

Reference source: ChEMBL document CHEMBL4513216
